Each recorded value in this set is attributed to patent US9540325B2.

Tested on: HCT116 cells
Test: Measurement of effect of inhibiting cancer cell proliferation (MTT)
Format: cell-based, human
Conditions: Homo sapiens, HCT-116, 48 h
Measured parameter: GI50

COc1cc(NC(=N)NC(=N)N2CCCCC2)cc(OC)c1.Cl [Example 45, hydrochloride] | > 100 µM
Cl.N=C(NC(=N)N1CCCCC1)Nc1ccc(F)cc1 [Example 14, hydrochloride] | > 100 µM
Cl.N=C(NC(=N)N1CCCCC1)Nc1c(F)cc(F)cc1F [Example 69, hydrochloride] | > 100 µM

// next entry
Q: Find the recorded GI50 belonging to Cl.N=C(NC(=N)N1CCCCC1)Nc1ccccc1 [Example 8, hydrochloride] and report it.
Result: 56.8 µM

---

// reported AMPK activation effect at 50 μM (%) for each item listed
Test system: AMPKα
Test: Measurement of AMPK activation effect (AMPKα Thr172 phosphorylation immunoassay) in MCF7 cells
Type: cell-based, human
Conditions: 50 μM, 24 hours, relative to untreated cells
Could you give me the number in %? Just the number is fine.

Q: Find the recorded AMPK activation effect at 50 μM (%) belonging to N=C(NC(=N)N1CCCC1)Nc1ccc(OC(F)(F)F)cc1 and report it.
Result: 938

---

System: HCT116 cells
Test: Measurement of effect of inhibiting cancer cell proliferation (MTT)
Assay type: cell-based, human
Details: Homo sapiens, HCT-116, 48 h
Measured parameter: GI50

The cases that follow already have their GI50 on record.
Cl.N=C(NC(=N)N1CCCCC1)Nc1ccc(S(N)(=O)=O)cc1 [Example 44, hydrochloride] | > 100 µM
Cl.N=C(NC(=N)N1CCCCC1)Nc1cccc(N)c1 [Example 36, hydrochloride] | > 100 µM

// next entry
Q: GI50 of CC(=O)Nc1ccc(NC(=N)NC(=N)N2CCCCC2)cc1.Cl [Example 38, hydrochloride] on HCT116 cells?
Result: > 100 µM

---

Tested on: AMPKα
Assay: Measurement of AMPK activation effect (AMPKα Thr172 phosphorylation immunoassay) in MCF7 cells
Assay type: cell-based, human
Details: 50 μM, 24 hours, relative to untreated cells
Experimental: MCF7 cells derived from human breast cancer cells (commercially available from the Korean Cell Line Bank) were used, and the AMPK activation effect of the biguanide derivative was confirmed using an AMPKα immunoassay kit (Invitrogen, Catalog No. KHO0651). MCF7 cells were cultured in a DMEM medium supplemented with 10% fetal bovine serum. Thereafter, the cultured MCF7 cells were put into a 6-well plate with approximately 5×10^5 cells per well and cultured in an incubator supplied with 5% CO2. […]
Everything with AMPK activation effect at 50 μM (%) lower than 200% is Not met; everything else, including exactly 200%, is Met.

Some entries whose results are on file:
Cl.N=C(NC(=N)N1CCCC1)Nc1ccc(Cl)cc1 | Met
Cl.N=C(NC(=N)N1CCCCC1)Nc1c(F)cc(F)cc1F | Not met
CC(=O)Nc1cccc(NC(=N)NC(=N)N2CCCCC2)c1.Cl | Not met
Cl.N=C(NC(=N)N1CCCCC1)Nc1cc(F)cc(F)c1 | Met

Moving on to another compound below.
Q: In plain terms: is recorded AMPK activation effect at 50 μM (%) at least 200% for Cl.N=C(NC(=N)N1CCCCC1)Nc1cccc(N)c1 ?
Result: Not met
